Quick reference for protein stability index among some sequences
Experiment: protein stability index of a GFP-peptide fusion (GPS, HEK-293T) (PSI 1-6); higher = more stable;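 note: 24-mer peptide tiles fused after GFP, lentivirally expressed, FACS-sorted into six equal bins by GFP/DsRed ratio, decoded by Illumina sequencing, PSI is the read-weighted mean bin number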
Settings: treatment: DMSO; c terminus: a fixed tail appended
Respond with the number and no other words.

GET /value?item= KLRAMKELSEAAEAQHGPHSAVAR [STX11] &field=protein stability index returns 4.51

GET /value?item= QKLEREARICRLLKHPNIVRLHDS [CAMK2A] &field=protein stability index returns 2.5

GET /value?item= MDSDMDYERPNVETIKCVVVGDNA [RHOBTB2] &field=protein stability index returns 4.74

----------
Experiment: protein stability index of a GFP-peptide fusion (GPS, HEK-293T) (PSI 1-6); higher = more stable
Settings: treatment: DMSO; c terminus: a fixed tail appended
Quick reference for protein stability index among some sequences
Respond with the number and no other words.

// worked examples, protein stability index included
GET /value?item= RYLGRPPSPTSPPPPELMDVSLVG [DYRK1B] &field=protein stability index returns 3.98

GET /value?item= PRSTVRQKVASNHSPFSSESRALS [TBX5] &field=protein stability index returns 4.11

New cases:
GET /value?item= EDLEATSEHFKTTSQKVARKFWWK [VAMP8] &field=protein stability index returns 4

----------
Quick reference for protein stability index among some sequences
Assay: protein stability index of a GFP-peptide fusion (GPS, HEK-293T) (PSI 1-6); higher = more stable
Conditions: treatment: MLN4924 1 uM, 8 h; c terminus: a fixed tail appended
Respond with the number and no other words.

// worked examples, protein stability index included
GET /value?item= PPQLRPGAPTSLQTEPQDRSPAPM [BCL2L11] &field=protein stability index returns 5.18

GET /value?item= LAVSRPRSSPDDLKALTRNVNRLN [SCARA5] &field=protein stability index returns 3.84

GET /value?item= LDFLQEVTRQPRNLQDLCRIKIRQ [ASB7] &field=protein stability index returns 3.57

GET /value?item= NSELVQSGKSEISELRRTMQALEI [KRT17] &field=protein stability index returns 3.94

GET /value?item= SVLDDLLYAVGGHDGSSYLNSVER [KLHL20] &field=protein stability index returns 3.03

New cases:
GET /value?item= HTEERPFKCNYCGKSFRQRPSLVI [ZNF449] &field=protein stability index returns 2.44

GET /value?item= SSHFLEQTLDKKLMSDLRRKRTAH [INTS4] &field=protein stability index returns 4.14

GET /value?item= SHFSRLSEEKLALDNNASASGNAT [C10orf62] &field=protein stability index returns 5.13

GET /value?item= LFAEEQAEGPNRLLYKDGFSTILH [LPCAT4] &field=protein stability index returns 3.1

----------
Assay: protein stability index of a GFP-peptide fusion (GPS, HEK-293T) (PSI 1-6); higher = more stable
Conditions: treatment: DMSO; c terminus: a fixed tail appended
Classify as follows. Reported protein stability index greater than or equal to 4: 1.0. Reported protein stability index below: 0.0.

Below are worked cases with known answers.
Hello, I need to know if ELKTFRLKTRSWAGERSRRELCSR [CDC25B] has measured protein stability index not below 4. Thanks!
0.0

Hello, I need to know if YSLAEDTIQGVPLSSYISINSDTG [PCDHGA10] has measured protein stability index not below 4. Thanks!
0.0

Hello, I need to know if LRIRSVEGRKKAFSTCGSHLTVVA [OR3A1] has measured protein stability index not below 4. Thanks!
0.0

Hello, I need to know if CLDTIDKSTMDAISAEGFTDIDID [BTBD1] has measured protein stability index not below 4. Thanks!
1.0

New cases:
Hello, I need to know if LSLLVHNVSVMHKSLDNMPNDEHW [FBXO33] has measured protein stability index not below 4. Thanks!
0.0

Hello, I need to know if EALNERHSIINALKAKLQMTEAAL [LRRC45] has measured protein stability index not below 4. Thanks!
0.0

Hello, I need to know if GFSLEDPQTHSNRIYRMIKLGLGI [HSP90AB1] has measured protein stability index not below 4. Thanks!
0.0

Numbers sourced from the supplement of paper PMC10567573.
